Where these numbers come from: PubChem BioAssay (NCI)

Test system: MDA-MB-435
TEST_DESCRIPTION: NCI tumour cell line growth inhibition, 48 h
MEASURE_NAME: TGI

>>> experimental_value("Cc1cc(I)cc(CN(C)CCCN2CCCCC2)c1O")
"33.4 µM"
>>> experimental_value("CCCCCCOc1ccc(C(=O)NOC)cc1")
"> 100 µM"
>>> experimental_value("O=C(O)/C=C(/C(=O)O)C12CCN3CC4=CCOC5CC(=O)NC1C5C4CC32 (centres undefined)")
"> 100 µM"
>>> experimental_value("C[C@@H]1CCC2[C@@H](C)[C@@H](OCC(CO[C@H]3OC4O[C@@]5(C)CC[C@H]6[C@H](C)CCC([C@H]3C)[C@@]46OO5)OC(=O)CCC(=O)O)OC3O[C@@]4(C)CC[C@@H]1[C@]32OO4 (some centres undefined)")
"13 µM"
>>> experimental_value("O=C(CCc1nnc2sc(-c3ccc(Cl)cc3Cl)nn12)c1nc2ncccc2[nH]1")
"3.68 µM"
>>> experimental_value("COc1ccc(NC(=O)CC(=O)N2N=C(N3c4ccccc4Sc4ccccc43)CC2c2ccccc2)cc1 (centres undefined)")
"> 100 µM"
>>> experimental_value("CS(=O)c1ncc2c(n1)-c1ccccc1OC2 (centres undefined)")
"> 100 µM"
>>> experimental_value("CCOC(=O)C1=C(C)C2C=C(c3cccs3)CC(c3ccc(Cl)cc3)=C2OC1=O (centres undefined)")
"> 100 µM"
>>> experimental_value("O=c1[nH]c(=O)n(C2OC(CO)C(O)C2O)c2nc(-c3ccc(-c4ccccc4)cc3)cnc12 (centres undefined)")
"> 100 µM"

###

System: RPMI-8226 leukemia
TEST_DESCRIPTION: NCI tumour cell line growth inhibition, 48 h
MEASURE_NAME: GI50

>>> experimental_value("O=C(Nc1ccc(Cl)cc1)c1cccc(NC2=C(Cl)C(=O)N(Cc3ccccc3)C2=O)c1")
"4.67 µM"
>>> experimental_value("O=C(/C=C\\c1ccc(Cl)c(Cl)c1)c1ccc(Cl)cc1Cl")
"2.35 µM"
>>> experimental_value("OCC#Cc1ccccc1C#Cc1ccccc1")
"3 µM"
>>> experimental_value("[Cl-].[La+3].[O-]/N=C(\\c1ccccc1)c1ccccn1.[O-]/N=C(\\c1ccccc1)c1ccccn1.[O-]/N=C(\\c1ccccc1)c1ccccn1")
"62.1 µM"

###

System: HOP-18 NSCLC
TEST_DESCRIPTION: NCI tumour cell line growth inhibition, 48 h
Each item that follows carries a reported TGI.
MEASURE_NAME: TGI (µM)

>>> experimental_value("Nc1ncnc2c1nnn2C1OC(CO)C(O)C1O (centres undefined)")
11.8
>>> experimental_value("c1ccc(COc2cccc3ccc[n+](Cc4ccccc4)c23)cc1")
15.4
>>> experimental_value("CC(C)(C)OC(=O)N[C@H]1CC2(C=C(Cl)C(=O)C(Cl)=C2)OC1=O")
30.4
>>> experimental_value("CCCCCCCCC/C=C1\\CCC(CN2CCOCC2)C1=O (centres undefined)")
10.7

###

# reported TGI; entries follow
Test system: 786-0 renal
TEST_DESCRIPTION: NCI tumour cell line growth inhibition, 48 h
MEASURE_NAME: TGI

>>> experimental_value("C#CC1(O)CCC2C3CCc4cc(Oc5nc(F)nc(-c6c7ccccc7c7sc8ccccc8n67)n5)ccc4C3CC[C@@]21C (some centres not stated)")
"> 100 µM"
>>> experimental_value("O=C(CC(C(=O)c1ccsc1)c1ccc2c(c1)OCO2)c1ccccc1 (configuration not stated)")
"> 100 µM"
>>> experimental_value("CC1=NN(c2cccc(Cl)c2)C2(C1=C/C=C/c1ccccc1)C(Cl)C(=O)N2c1nc2ccccc2s1 (configuration not stated)")
"> 55 µM"
>>> experimental_value("c1c[nH]c(-c2ccc(-c3ccc[nH]3)c3nsnc23)c1")
"> 67.6 µM"
>>> experimental_value("CCN(CCCN(CC)C(=O)Nc1c(C)cccc1C)C(=O)Nc1c(C)cccc1C")
"> 100 µM"
>>> experimental_value("CC1=CC(O)(c2ccc(-c3ccccc3Cl)cc2)OC1=O (configuration not stated)")
"> 100 µM"
>>> experimental_value("O=c1cc(-c2ccccc2)oc2cc(OCCCOc3ccc4c(=O)cc(-c5ccccc5)oc4c3)ccc12")
"> 100 µM"
>>> experimental_value("Clc1ccc(C(c2ccc(Cl)cc2)c2ccccn2)cc1")
"30.6 µM"
>>> experimental_value("CC(=N/N=C/c1ccccn1)/C(C)=N/N=C(C)/C(C)=N/N=C(C)/C(C)=N/N=C(C)/C(C)=N\\N=C\\c1ccccn1")
"> 100 µM"
>>> experimental_value("C=CCSc1nnc2cc(CN3CCCC3)c(-c3ccc(Cl)cc3)nn12")
"33.7 µM"
>>> experimental_value("O=c1[nH]c(Nc2nc3ccccc3[nH]2)nc(O)c1-c1ccccc1")
"> 100 µM"
>>> experimental_value("Cc1cc(/C=C/c2ccc3cc(N(C)C)ccc3[n+]2C)c(C)n1-c1ccccc1")
"1.53 µM"
>>> experimental_value("COc1cccc2c1OC1(C=C2)Oc2ccccc2C(=O)N1C (configuration not stated)")
"> 100 µM"
>>> experimental_value("CN(C)c1ccc(C(=N/N=C2\\C(=O)Nc3ccccc32)c2ccc(N(C)C)cc2)cc1")
"13.2 µM"
>>> experimental_value("[Cl-].[La+3].[O-]/N=C(\\c1ccccc1)c1ccccn1.[O-]/N=C(\\c1ccccc1)c1ccccn1.[O-]/N=C(\\c1ccccc1)c1ccccn1")
"> 100 µM"
>>> experimental_value("O=[N+]([O-])C(/C=C(\\Cl)n1nnc2ccccc21)=C(/Cl)n1nnc2ccccc21")
"> 100 µM"
>>> experimental_value("Cc1cc(I)cc(CN(C)CCCN2CCCCC2)c1O")
"26.5 µM"
>>> experimental_value("CC1OC(OC2C(OC(=O)[C@]34CCC(C)(C)C[C@H]3C3=CC[C@@H]5[C@@]6(C)CC[C@H](OC7OC(C(=O)O)C(O)C(O)C7O)C(C)(C)[C@@H]6CC[C@@]5(C)[C@]3(C)C[C@H]4O)OCC(O)C2O)C(O)C(OC2OCC(O)(CO)C2O)C1OC1OCC(O)C(O)C1O (some centres not stated)")
"24.7 µM"
>>> experimental_value("CCN1CCN(c2nc(C)cc(N(CCNc3ccnc4cc(Cl)ccc34)Cc3ccc4c(c3)OCO4)n2)CC1")
"3.08 µM"
>>> experimental_value("Cc1ccc(C(=C2Sc3ccccc3S2)C(=C2Sc3ccccc3S2)c2ccc(C)s2)s1")
"> 100 µM"
>>> experimental_value("COc1ccc2c(C)cc(=O)oc2c1OC")
"> 100 µM"
>>> experimental_value("CC(C)C(C)/C=C\\C(C)C1CCC2C3=CC=C4CC(O)CCC4(C)C3CCC21C (configuration not stated)")
"> 60.7 µM"

###

System: EKVX NSCLC
TEST_DESCRIPTION: NCI tumour cell line growth inhibition, 48 h
MEASURE_NAME: TGI

>>> experimental_value("CC(=O)OC1=CC(n2cc(F)c(=O)[nH]c2=O)OC(C)C1=O (centres undefined)")
"> 100 µM"
>>> experimental_value("CCc1cc(Cc2cc(CC)c(NC(=O)C(=O)Cc3ccccn3)c(CC)c2Cl)c(Cl)c(CC)c1NC(=O)C(=O)Cc1ccccn1")
"> 100 µM"
>>> experimental_value("COc1ncnc(NS(=O)(=O)c2ccc(N=C3C(=O)N(CN4CCN(c5c(F)cc6c(=O)c(C(=O)O)cn(C7CC7)c6c5OC)CC4C)c4ccc(Cl)cc43)cc2)c1OC (centres undefined)")
"> 50 µM"
>>> experimental_value("COc1ccc2c(c1)OCC1Cc3ccccc3OC21 (centres undefined)")
"> 100 µM"

###

Test system: HL-60(TB) leukemia
TEST_DESCRIPTION: NCI tumour cell line growth inhibition, 48 h; in the data active = GI50 below about 0.43 µM; inactive = the rest
Possible outcomes: class 1 = active, class 0 = inactive

>>> group_label("O=C1OC(O)[C@@H]2[C@H]1[C@H]1CC[C@@H]2O1 (stereo partly drawn)")
"class 0"
>>> group_label("C[C@@H]1CCC2[C@@H](C)[C@@H](OCC(CO[C@H]3OC4O[C@@]5(C)CC[C@H]6[C@H](C)CCC([C@H]3C)[C@@]46OO5)OC(=O)CCC(=O)O)OC3O[C@@]4(C)CC[C@@H]1[C@]32OO4 (stereo partly drawn)")
"class 1"
>>> group_label("O=C(CCc1nnc2sc(-c3ccc(Cl)cc3Cl)nn12)c1nc2ncccc2[nH]1")
"class 0"
>>> group_label("CCCCCCCC(=O)SCC/C=C/[C@@H]1CC(=O)NCc2cc(ccn2)C2=N[C@@](C)(CS2)C(=O)N[C@@H](C(C)C)C(=O)O1")
"class 1"
>>> group_label("CC(=O)[C@@]12O[C@@H]1CC1C3CCC4=CC(O)CCC4(C)C3CCC12C (stereo partly drawn)")
"class 0"
>>> group_label("O=C(/C=C/c1ccc(Cl)cc1)c1ccc(Nc2ccnc3cc(Cl)ccc23)cc1")
"class 0"
>>> group_label("COc1ccc(-c2nnc(COc3ccc(C(=O)/C=C/c4ccco4)cc3)o2)cc1")
"class 0"
>>> group_label("Cc1c2c(nn1-c1ccc(S(=O)(=O)/N=C3\\SCCC(=O)N3c3ccccc3)cc1)-c1ccccc1CC2")
"class 0"
